- Procedure Summary: Clearance in Sprague-Dawley rat at 2 mg/kg, iv by LC-MS/MS method
- Assay type: ADME, organism-based
- Test Settings: in vivo
Test Readout: clearance

> print(dat)
                              record.smiles          result
1  C[C@@H]1CN(C(=O)c2nc(Nc3cc(C4CC4)[nH]n3)c3cc(Cl)ccc3n2)CCN1.Cl  70.7 mL/min/kg

---

Ratio Ki reference
- Species: Homo sapiens
- Procedure Summary: Selectivity index, ratio of Ki for human PAK1 to Ki for human PAK4
Test Readout: Ratio Ki

> print(dat)
                              record.smiles  test.readout  result
1  Cc1cc(Nc2nc(C(=O)N3CCNC[C@@H]3C)nc3ccc(Cl)cc23)n[nH]1      Ratio Ki    > 21
2  Cn1cnc(Nc2nc(N3CCC(N)CC3)nc3ccc(Cl)cc23)c1      Ratio Ki    > 14
3  Cc1cc(Nc2nc(C(=O)N3CCN[C@@H](C)C3)nc3ccc(Cl)cc23)n[nH]1      Ratio Ki    > 15

---

- System: Serine/threonine-protein kinase PAK 1 (Homo sapiens)
- Sequence (Q13153 whole entry): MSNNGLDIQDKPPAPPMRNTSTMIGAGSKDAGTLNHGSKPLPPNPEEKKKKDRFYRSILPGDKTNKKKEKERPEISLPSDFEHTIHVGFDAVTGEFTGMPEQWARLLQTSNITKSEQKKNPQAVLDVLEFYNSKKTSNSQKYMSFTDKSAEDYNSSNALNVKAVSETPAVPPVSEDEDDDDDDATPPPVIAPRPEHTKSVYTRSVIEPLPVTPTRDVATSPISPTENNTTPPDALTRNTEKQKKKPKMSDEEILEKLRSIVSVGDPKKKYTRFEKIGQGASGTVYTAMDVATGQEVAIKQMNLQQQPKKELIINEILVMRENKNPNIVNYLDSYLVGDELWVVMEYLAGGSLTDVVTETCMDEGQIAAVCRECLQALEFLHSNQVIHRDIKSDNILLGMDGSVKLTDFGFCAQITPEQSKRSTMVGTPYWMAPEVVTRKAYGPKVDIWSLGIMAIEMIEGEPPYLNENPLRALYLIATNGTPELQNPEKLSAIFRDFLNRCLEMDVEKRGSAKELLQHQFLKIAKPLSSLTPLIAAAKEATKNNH
The reader will find reported Ki values listed item by item below.
Test Readout: Ki

> print(dat)
                              record.smiles     result
1  Cc1cc(Nc2nc(C(=O)N3CCN[C@H](C)C3)nc3ccc(Cl)cc23)n[nH]1    > 10 µM
2  COc1ccc2nc(C(=O)N3CCN[C@H](C)C3)nc(Nc3cc(C4CC4)[nH]n3)c2c1  > 4.52 µM
3  Cc1cc(Nc2nc(C(=O)N3CCNCC3)nc3ccc(Cl)cc23)n[nH]1    > 10 µM
4  Cc1cc(Nc2nc(C(=O)N3CCN[C@@H](C)C3)nc3ccc(Cl)cc23)n[nH]1  > 4.52 µM
